Reported PBM binding z-score by item:
- Tested on: PPARg homodimer (NR concentration 180 nM)
- PROTOCOL SUMMARY: PBM binding z-score (relative to random genomic background probes); higher = stronger binding; sequences stand for … in GC…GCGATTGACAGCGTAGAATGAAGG
METRIC NAME: PBM binding z-score

>>> endpoint_value("TAGCCTATGTCATTCAGGGGCCAGTATAGAAAGC")
-0.12
>>> endpoint_value("CCTGCTAGGTCATGGACAGCTAATCTACAGTATG")
0.812
>>> endpoint_value("CGTACTAGGTCATCCAGGACAGTGAATACATTGA")
2.23
>>> endpoint_value("ATCGAAAGGTCGATGAGGTGAGTATACACCGTTT")
1.49
>>> endpoint_value("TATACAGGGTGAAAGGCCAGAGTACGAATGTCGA")
1.24
>>> endpoint_value("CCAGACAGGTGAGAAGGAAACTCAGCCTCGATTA")
0.615

* * *

Reported PBM binding z-score by item:
- Tested on: RARb:RXRa (NR concentration 270 nM, RXRa partner concentration 90 nM)
- PROTOCOL SUMMARY: PBM binding z-score (relative to random genomic background probes); higher = stronger binding; sequences stand for … in GC…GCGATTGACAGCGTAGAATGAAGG
METRIC NAME: PBM binding z-score

>>> endpoint_value("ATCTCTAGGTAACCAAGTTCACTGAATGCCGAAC")
1.9
>>> endpoint_value("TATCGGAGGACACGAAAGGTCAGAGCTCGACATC")
4.37
>>> endpoint_value("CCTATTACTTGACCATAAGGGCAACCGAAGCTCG")
1.61
>>> endpoint_value("TCTCGGAGGACACGAAGGTCAGAGCCTTCCAGAG")
3.33
>>> endpoint_value("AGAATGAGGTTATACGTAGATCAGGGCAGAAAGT")
1.51
>>> endpoint_value("GCTAGCAGGCCATTTGCGTCACTCAATGACGGGC")
-0.167
>>> endpoint_value("AGTCAAAGTTCAGGACGAGGTATCGTAAAGCACG")
4.09
>>> endpoint_value("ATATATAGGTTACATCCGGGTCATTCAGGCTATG")
2.51
>>> endpoint_value("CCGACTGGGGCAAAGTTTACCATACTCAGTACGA")
1.41
>>> endpoint_value("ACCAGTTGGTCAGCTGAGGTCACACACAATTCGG")
3.71
>>> endpoint_value("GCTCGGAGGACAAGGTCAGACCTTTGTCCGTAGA")
3.67
>>> endpoint_value("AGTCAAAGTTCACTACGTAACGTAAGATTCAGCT")
4.47
>>> endpoint_value("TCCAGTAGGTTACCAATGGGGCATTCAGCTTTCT")
1.31
>>> endpoint_value("ATCTCTAGGTAACAAGTTCAGTTAAAGAGAGGAC")
1.71
>>> endpoint_value("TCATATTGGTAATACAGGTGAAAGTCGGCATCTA")
0.496
>>> endpoint_value("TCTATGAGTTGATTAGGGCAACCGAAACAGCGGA")
0.711
>>> endpoint_value("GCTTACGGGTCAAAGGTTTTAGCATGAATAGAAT")
3.98
>>> endpoint_value("CCTATTAGTTGACCATGAGGGCAACCGAAGCTCG")
1.52
>>> endpoint_value("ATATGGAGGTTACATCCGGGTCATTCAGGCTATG")
2.88
>>> endpoint_value("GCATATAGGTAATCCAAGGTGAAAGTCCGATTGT")
0.51
>>> endpoint_value("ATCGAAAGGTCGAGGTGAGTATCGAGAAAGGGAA")
4.2
>>> endpoint_value("CCCACTGGGGCAGAAAGGTTACCATACCATCCGG")
1.86

* * *

- Test system: FXR:RXRa (NR concentration 270 nM, RXRa partner concentration 90 nM)
- PROTOCOL SUMMARY: PBM binding z-score (relative to random genomic background probes); higher = stronger binding; sequences stand for … in GC…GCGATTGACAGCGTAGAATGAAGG
Criterion: PBM binding z-score meeting or surpassing 1. Met: true (1). Not met: false (0).

>>> group("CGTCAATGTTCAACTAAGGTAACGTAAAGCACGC")
"false (0)"
>>> group("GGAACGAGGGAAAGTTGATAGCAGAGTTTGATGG")
"false (0)"
>>> group("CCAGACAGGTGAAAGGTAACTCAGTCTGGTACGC")
"false (0)"
>>> group("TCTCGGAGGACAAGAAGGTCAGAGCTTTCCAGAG")
"true (1)"
>>> group("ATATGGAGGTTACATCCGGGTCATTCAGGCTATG")
"true (1)"
>>> group("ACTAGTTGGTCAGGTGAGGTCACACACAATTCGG")
"true (1)"

* * *

- Tested on: VDR homodimer (NR concentration 270 nM)
- PROTOCOL SUMMARY: PBM binding z-score (relative to random genomic background probes); higher = stronger binding; sequences stand for … in GC…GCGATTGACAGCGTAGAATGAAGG
Reported PBM binding z-score by item:
METRIC NAME: PBM binding z-score

>>> endpoint_value("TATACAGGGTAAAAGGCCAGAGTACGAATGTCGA")
0.418
>>> endpoint_value("CCTTACGGGTCACTGACAGGTGATAGCATTTGGA")
1.31
>>> endpoint_value("GCAGACAGGTGAAACGGAGGTAACTCAGGGTGGC")
-0.566
>>> endpoint_value("CCTAGCAGGCCAATCTTGGTCACTCAAGGCTTGA")
-0.655
>>> endpoint_value("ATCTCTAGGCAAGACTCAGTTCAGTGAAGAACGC")
1.01
>>> endpoint_value("ACTAGTTGGTCAGCAGAGGTCACACACAATTCGG")
3.3
>>> endpoint_value("CGTCCAAAGTCAGAGAGGTCAGTGAATGCCGAGT")
2.12
>>> endpoint_value("AGTCGAAGTTCATCTAGGTAACGTAAGATATGCT")
3.81
>>> endpoint_value("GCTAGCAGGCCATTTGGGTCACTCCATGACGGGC")
0.419
>>> endpoint_value("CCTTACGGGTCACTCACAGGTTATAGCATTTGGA")
1.28
>>> endpoint_value("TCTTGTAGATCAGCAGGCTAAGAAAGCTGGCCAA")
-0.475
>>> endpoint_value("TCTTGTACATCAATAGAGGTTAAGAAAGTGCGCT")
-0.116

* * *

- Test system: RARb homodimer (NR concentration 270 nM)
- PROTOCOL SUMMARY: PBM binding z-score (relative to random genomic background probes); higher = stronger binding; sequences stand for … in GC…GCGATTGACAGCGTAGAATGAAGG
Reported PBM binding z-score by item:
METRIC NAME: PBM binding z-score

>>> endpoint_value("CATACAGGGTCAGCTAGGCCAGAGGAGGGACGGC")
3.12
>>> endpoint_value("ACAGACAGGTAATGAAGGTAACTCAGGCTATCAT")
0.185
>>> endpoint_value("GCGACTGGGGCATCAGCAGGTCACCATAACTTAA")
3.25
>>> endpoint_value("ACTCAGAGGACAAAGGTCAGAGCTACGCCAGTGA")
4.56
>>> endpoint_value("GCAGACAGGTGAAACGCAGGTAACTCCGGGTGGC")
0.0338
>>> endpoint_value("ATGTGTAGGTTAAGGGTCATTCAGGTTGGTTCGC")
4.06
>>> endpoint_value("CAAACTAGGTCGAGAGGTCAAAGTCCGCTTCCCG")
4.73
>>> endpoint_value("CGAACGAGGTCAAGGACAGTGAATCTCCGCACGC")
4.19
>>> endpoint_value("TGCATGAGGTTAAAGATCAGGGAACGTGGCGTCG")
1.02
>>> endpoint_value("TCATATCGGTAAACAGGTGAAAGTCCGTAAGTTA")
0.664
>>> endpoint_value("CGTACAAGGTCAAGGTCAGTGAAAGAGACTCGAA")
5.35
>>> endpoint_value("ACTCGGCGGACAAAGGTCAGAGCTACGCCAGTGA")
4.19
>>> endpoint_value("TAGCCTAGGTCTGATCGGGCCAGTATACGCTATA")
-0.807
>>> endpoint_value("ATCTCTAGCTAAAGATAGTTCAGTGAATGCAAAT")
0.481
>>> endpoint_value("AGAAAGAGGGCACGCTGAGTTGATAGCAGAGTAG")
1.64
>>> endpoint_value("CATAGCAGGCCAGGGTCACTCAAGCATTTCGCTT")
3.09
>>> endpoint_value("CAAACTAGGTCTCAGAGGTCAAAGTCCGTGCGTA")
4.68
>>> endpoint_value("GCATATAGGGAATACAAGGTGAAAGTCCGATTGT")
0.509
>>> endpoint_value("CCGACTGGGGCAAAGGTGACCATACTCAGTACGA")
1.44
>>> endpoint_value("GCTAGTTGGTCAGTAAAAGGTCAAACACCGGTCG")
5.05
>>> endpoint_value("ATCGAAAGGTCGTGAGGTGAGAATACAGAAAGGC")
3.14
>>> endpoint_value("ATATGTAGGTTACATCCGGGCCATTCAGGCTATG")
0.788
>>> endpoint_value("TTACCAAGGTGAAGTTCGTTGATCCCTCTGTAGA")
1.18
>>> endpoint_value("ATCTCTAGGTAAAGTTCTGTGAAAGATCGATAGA")
-0.0506
>>> endpoint_value("ACAGAGAGGTGAGTGAAGGTAACTCAGCTGGACG")
0.91
>>> endpoint_value("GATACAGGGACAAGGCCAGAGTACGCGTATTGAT")
0.843
